Origin of measurements: patent US20230181746A1

molecular target: HDAC3 (in complex with the deacetylase activation domain of the human NCOR2 (amino acids 395-498)) (Homo sapiens); assay: In vitro HDAC activity assay (HDAC-Glo I/II), HDAC3; conditions: HDAC-Glo I/II; average of three independent assays ± standard deviation
Sequence (O15379 whole entry, the tested form may be a part): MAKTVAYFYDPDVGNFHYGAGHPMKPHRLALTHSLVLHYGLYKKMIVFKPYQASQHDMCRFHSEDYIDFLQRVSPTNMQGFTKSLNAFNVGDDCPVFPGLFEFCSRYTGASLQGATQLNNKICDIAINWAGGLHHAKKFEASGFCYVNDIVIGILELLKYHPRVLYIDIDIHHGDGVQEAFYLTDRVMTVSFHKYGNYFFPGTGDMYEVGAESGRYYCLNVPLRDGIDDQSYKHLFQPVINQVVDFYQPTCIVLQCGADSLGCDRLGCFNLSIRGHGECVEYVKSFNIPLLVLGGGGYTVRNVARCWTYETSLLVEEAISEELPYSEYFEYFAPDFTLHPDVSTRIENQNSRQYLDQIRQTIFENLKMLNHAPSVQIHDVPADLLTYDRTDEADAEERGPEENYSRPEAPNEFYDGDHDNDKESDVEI
Sequence (Q9Y618 395-498 partner limits assumed): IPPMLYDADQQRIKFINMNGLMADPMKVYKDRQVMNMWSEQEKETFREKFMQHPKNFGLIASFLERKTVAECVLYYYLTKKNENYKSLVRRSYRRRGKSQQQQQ
// boundary case: IC50 equal to 0.1 µM maps to Not satisfied; strictly smaller maps to Satisfied

molecule	classAssignment
CCCNNC(=O)c1ccc(-c2ccc(NC(=O)CCCCCCC(=O)N[C@H](C(=O)N3C[C@H](O)C[C@H]3C(=O)N[C@@H](C)c3ccc(-c4scnc4C)cc3)C(C)(C)C)cc2)cc1	Not satisfied
CCCNNC(=O)c1ccc(-c2ccc(NC(C)=O)cc2)cc1	Satisfied
CCCNNC(=O)c1ccc(-c2ccc(NC(=O)CCCCCCCCC(=O)N[C@H](C(=O)N3C[C@H](O)C[C@H]3C(=O)N[C@@H](C)c3ccc(-c4scnc4C)cc3)C(C)(C)C)cc2)cc1	Not satisfied
CCCNNC(=O)c1ccc(-c2ccc(NC(=O)CCC(=O)N[C@H](C(=O)N3C[C@H](O)C[C@H]3C(=O)N[C@@H](C)c3ccc(-c4scnc4C)cc3)C(C)(C)C)cc2)cc1	Not satisfied
CCCNNC(=O)c1ccc(-c2ccc(NC(=O)COCCOCCOCCNc3cccc4c3C(=O)N(C3CCC(=O)NC3=O)C4=O)cc2)cc1 (centres unmarked)	Satisfied
CCCNNC(=O)c1ccc(-c2ccc(NC(=O)COCCOCCOCCOCCNc3cccc4c3C(=O)N(C3CCC(=O)NC3=O)C4=O)cc2)cc1 (centres unmarked)	Satisfied

[Q] Below 0.1 µM on IC50? Entry `CCCNNC(=O)c1ccc(-c2ccc(NC(=O)CCCCC(=O)N[C@H](C(=O)N3C[C@H](O)C[C@H]3C(=O)N[C@@H](C)c3ccc(-c4scnc4C)cc3)C(C)(C)C)cc2)cc1`
[A] Not satisfied

[Q] For this molecule, is IC50 lower than 0.1 µM? CCCNNC(=O)c1ccc(-c2ccc(NC(=O)COCCOCCNc3cccc4c3C(=O)N(C3CCC(=O)NC3=O)C4=O)cc2)cc1 (centres unmarked)
[A] Satisfied

###

Please go through the items and note down their IC50.
biological target: HDAC2 (Homo sapiens, UniProt Q92769)
Sequence (Q92769 whole entry): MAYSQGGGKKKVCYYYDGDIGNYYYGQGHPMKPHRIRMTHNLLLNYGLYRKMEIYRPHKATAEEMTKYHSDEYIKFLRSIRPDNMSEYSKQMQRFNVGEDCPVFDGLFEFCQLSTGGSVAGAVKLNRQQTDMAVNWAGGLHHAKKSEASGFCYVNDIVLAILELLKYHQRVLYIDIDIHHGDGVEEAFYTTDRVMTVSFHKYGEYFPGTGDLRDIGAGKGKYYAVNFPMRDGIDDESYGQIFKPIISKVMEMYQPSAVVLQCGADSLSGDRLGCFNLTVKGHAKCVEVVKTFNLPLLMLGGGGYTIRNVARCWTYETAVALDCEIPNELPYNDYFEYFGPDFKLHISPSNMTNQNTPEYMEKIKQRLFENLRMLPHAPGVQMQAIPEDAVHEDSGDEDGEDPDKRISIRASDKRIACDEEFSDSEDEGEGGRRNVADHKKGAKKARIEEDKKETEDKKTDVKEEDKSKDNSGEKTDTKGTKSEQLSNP
Numbers only, in nM.

Count: 3. Required value per item: IC50.
1. CCCNNC(=O)c1ccc(-c2ccc(NC(=O)CCCCCCC(=O)N[C@H](C(=O)N3C[C@H](O)C[C@H]3C(=O)N[C@@H](C)c3ccc(-c4scnc4C)cc3)C(C)(C)C)cc2)cc1 [XZ9002]
2. CCCNNC(=O)c1ccc(-c2ccc(NC(=O)CCC(=O)N[C@H](C(=O)N3C[C@H](O)C[C@H]3C(=O)N[C@@H](C)c3ccc(-c4scnc4C)cc3)C(C)(C)C)cc2)cc1 [Compound 8a]
3. CCCNNC(=O)c1ccc(-c2ccc(NC(C)=O)cc2)cc1 [Compound 15]

[A]
1. 1550
2. 1400
3. 82

###

The reader will find IC50 measurements below, all made with HDAC1 (Homo sapiens, UniProt Q13547).
Sequence (Q13547 whole entry): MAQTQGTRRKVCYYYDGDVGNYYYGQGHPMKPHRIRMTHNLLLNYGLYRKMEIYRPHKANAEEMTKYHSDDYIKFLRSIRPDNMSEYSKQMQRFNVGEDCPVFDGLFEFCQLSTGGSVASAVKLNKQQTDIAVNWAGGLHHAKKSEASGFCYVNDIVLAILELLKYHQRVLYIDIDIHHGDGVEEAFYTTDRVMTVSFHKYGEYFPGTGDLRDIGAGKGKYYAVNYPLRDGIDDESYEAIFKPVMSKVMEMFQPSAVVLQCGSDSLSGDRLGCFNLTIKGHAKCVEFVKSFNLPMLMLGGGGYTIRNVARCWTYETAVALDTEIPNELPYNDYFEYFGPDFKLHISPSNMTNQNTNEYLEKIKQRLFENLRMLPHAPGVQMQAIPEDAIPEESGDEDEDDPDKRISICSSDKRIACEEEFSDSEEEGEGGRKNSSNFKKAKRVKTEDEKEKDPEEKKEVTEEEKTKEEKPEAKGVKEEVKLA
One number for each entry, in nM.

compound	unitOfMeasure	IC50
CCCNNC(=O)c1ccc(-c2ccc(NC(=O)CCC(=O)N[C@H](C(=O)N3C[C@H](O)C[C@H]3C(=O)N[C@@H](C)c3ccc(-c4scnc4C)cc3)C(C)(C)C)cc2)cc1 [Compound 8a]	nM	300
CCCNNC(=O)c1ccc(-c2ccc(NC(=O)CCCCCCCCC(=O)N[C@H](C(=O)N3C[C@H](O)C[C@H]3C(=O)N[C@@H](C)c3ccc(-c4scnc4C)cc3)C(C)(C)C)cc2)cc1 [Compound 8d]	nM	1500
CCCNNC(=O)c1ccc(-c2ccc(NC(=O)COCCOCCNc3cccc4c3C(=O)N(C3CCC(=O)NC3=O)C4=O)cc2)cc1 (stereo not shown) [Compound 7a]	nM	82

Now let's try a different one.
[Q] Any idea what IC50 was measured for CCCNNC(=O)c1ccc(-c2ccc(NC(=O)CCCCCCC(=O)N[C@H](C(=O)N3C[C@H](O)C[C@H]3C(=O)N[C@@H](C)c3ccc(-c4scnc4C)cc3)C(C)(C)C)cc2)cc1 [XZ9002] ?
[A] 650
